- TARGET: biotinylated CD59 (Homo sapiens, UniProt P13987)
- Construct: Recombinant soluble human CD59 with an additional C-terminal cysteine residue
- Sequence (P13987 26-102 limits assumed): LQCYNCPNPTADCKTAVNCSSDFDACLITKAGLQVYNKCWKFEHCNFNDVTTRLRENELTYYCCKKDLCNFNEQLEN
- ASSAY_PROCEDURE: mRNA-display cyclic peptide screen against CD59-biotin, NGS abundance after 6th selection round
- TEST_PARAMETERS: percentage of the pool averaged across the two sequencing samples, sheet R6

| QUERY_SEQUENCE | Percentage Average, % |
| --- | --- |
| YARGNNASQFF | 0.089 |
| NTAWGNVAVAYF | 0.036 |
| WILGSRWWTRS | 0.104 |
| WRDRFDRCVL | 0.026 |
| CYGGRTFIYAWS | 8.295 |
| SVGGSRSWTRG | 0.138 |
| SWTWGNRSSARG | 0.030 |
| CFAGRLTVDAV | 0.034 |
| CFKKRLDTVST | 0.019 |
